Sourced from patent US6737383B1

# Test system: wheat
# Protocol Notes: Test B pre/postemergence wheat
# Type: in vivo, Triticum aestivum
# Condition Info: Preemergence, Rate 250 g/ha
Items are presented alongside their recorded Wheat plant response rating (0 to 10 scale).
In your answer, state the number alone without any accompanying words.

Solved entries (count: 3):
Compound	Measured
CCOCn1c(=O)on(C(=O)N(c2ccc(Cl)cc2)C(C)C)c1=O [Compound 534]	3
CCCCCCn1c(=O)on(C(=O)N(c2ccccc2)C(C)C)c1=O [Compound 558]	0
CCCCn1c(=O)on(C(=O)N(c2ccc(Cl)cc2)C(C)C)c1=O [Compound 527]	0

Exercise: May I ask what Wheat plant response rating (0 to 10 scale) has been recorded for COCCOCn1c(=O)on(C(=O)N(c2ccccc2)C(C)C)c1=O [Compound 564] ?
Solution: 7

* * *

# Tested on: crabgrass
# Protocol Notes: Test B pre/postemergence crabgrass
# Assay type: in vivo, Digitaria sanguinalis
# Condition Info: Rate 250 g/ha, Postemergence; scale of 0 to 10 where 0 is no effect and 10 is complete control
Value Kind: Plant response rating, Crabgrass

Some compounds with recorded Plant response rating, Crabgrass:
Structure Smiles	Plant response rating, Crabgrass
CCN(C(=O)n1oc(=O)n(N(C)C)c1=O)C1CCCCC1	0
CC(C)N(C(=O)n1oc(=O)n(CC(C)(C)C)c1=O)c1ccccc1	6
CC(C)N(C(=O)n1oc(=O)n(C2CC2)c1=O)c1ccc(F)cc1F	4

Exercise: Can you look up the measured Plant response rating, Crabgrass of CCCCn1c(=O)on(C(=O)N(c2ccc(Cl)cc2)C(C)C)c1=O for me?
Solution: 9

Exercise: Record: CCCCn1c(=O)on(C(=O)N(c2ccccc2)C(C)C)c1=O
Solution: 2

Exercise: And for COCCOCn1c(=O)on(C(=O)N(c2ccccc2)C(C)C)c1=O ?
Solution: 8

* * *

# Test system: purple nutsedge
# Protocol Notes: Test B pre/postemergence purple nutsedge
# Type: in vivo, Cyperus rotundus
# Condition Info: Preemergence, Rate 500 g/ha; scale 0 (no effect) to 10 (complete control)
The compounds listed here are annotated with their Nutsedge plant response rating.
Reply with just the number.

Completed entries (count: 3):
Compound	Value Kind	Measured
CC(C)N(C(=O)n1oc(=O)n(-c2cc(Cl)ccc2Cl)c1=O)c1ccc(F)cc1 [Compound 16]	Nutsedge plant response rating	0
Cc1ccccc1-n1c(=O)on(C(=O)N(c2cc(OC(C)C)c(Cl)cc2Cl)C(C)C)c1=O [Compound 42]	Nutsedge plant response rating	0
CC(C)N(C(=O)n1oc(=O)n(-c2ccc(Cl)cc2C(F)(F)F)c1=O)c1ccc(F)cc1 [Compound 20]	Nutsedge plant response rating	0

As a next step, examine the compound that follows.
Exercise: Nutsedge plant response rating lookup needed for Cc1cccc(C(C)C)c1-n1c(=O)on(C(=O)N(c2ccccc2)C(C)C)c1=O [Compound 66] , thanks.
Solution: 6

* * *

# Test system: blackgrass
# Protocol Notes: Test B pre/postemergence blackgrass
# Format: in vivo, Alopecurus myosuroides
# Condition Info: Postemergence, Rate 250 g/ha; scale 0 to 10, 0 no effect, 10 complete control
Each item that follows carries a reported Blackgrass plant response rating.
Please give the numeric answer without any surrounding text.

Exercise: Please give the measured Blackgrass plant response rating for this compound: Cc1cccc(C)c1-n1c(=O)on(C(=O)N(Cc2ccccc2)C(C)C)c1=O [Compound 69]
Solution: 0

Exercise: Here is the next compound: Cc1ccccc1-n1c(=O)on(C(=O)N(c2ccccc2)C(C)C)c1=O [Compound 36]
Solution: 4

Exercise: What do we get for Cc1ccccc1-n1c(=O)on(C(=O)N(c2cc(OC(C)C)c(Cl)cc2Cl)C(C)C)c1=O [Compound 42] ?
Solution: 0

Exercise: Please give the result for Cc1ccccc1-n1c(=O)on(C(=O)N(Cc2ccccc2)C(C)C)c1=O [Compound 72] too.
Solution: 0
